- measurement_description: qHTS assay to identify small molecules that stimulate interleukin-8 (IL-8) secretion (AID 651758); as to activation: 0% is about no effect
- test_parameters: HTRF ratio (665/615); series mostly up to 92.2 µM
Records with an inconclusive call do not appear. Activity calls are given as the source filed them. Calls follow the shape of the dose curve; as a rule, active = well fitted activation curve with a large enough effect in the signal ratio; inconclusive = small, poorly fitted or top-dose-only effect, or effect the other way, or a change in a side signal; inactive = flat fitted curve, though single readings scatter; the % refers to the signal ratio.
Just give me one of these, please: active, inactive

Worked examples follow.
CCCCNCC ... inactive
CCCCCCCCOc1ccc(C(=O)O)cc1 ... active

Query molecule follows.
query: So what was the verdict on Oc1ccc(O)c2c(O)cccc12 in this test?
result: active

====

- measurement_description: Stat Signaling Pathway (AID 446);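 also: ME-180 cervical cancer cells given 40 pM IL-6 alongside compound; SIE-controlled beta-lactamase reporter measured as 460/530 nm FRET emission ratio; % is scaled to controls: 0 for no effect and ±100 for the full control effect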
- test_parameters: ME-180 (cervical carcinoma) SIE beta-lactamase reporter, IL-6 stimulated, 5 h; at 7.69 µM (top of the series) unless noted
Results filed as inconclusive are left out. Calls of active or inactive are those of the source. Calls follow the shape of the dose curve; as a rule, active = well fitted curve in either direction with a large enough effect (not every such curve was filed as active); inconclusive = small, poorly fitted or top-dose-only effect, or another doubt; inactive = flat fitted curve, though single readings scatter.
Give measured activity, negative = inhibition for each item. Keep answers brief.

Example molecules with recorded activity, negative = inhibition:
NCOC(=O)Cc1ccc(Br)cc1 ... 5.96% (inactive)
CSc1nc(C)cc(Nc2ccc(O)c(CN3CCOCC3)c2)n1 ... -6.58% (inactive)
NC(=S)SCCC(=O)O ... 14.5% (inactive)
O=C1[C@@H]2[C@@H](C(=O)N1c1ccc(OCc3ccccc3)cc1)[C@@H]1c3ccccc3[C@@H]2[n+]2ccccc21 ... 4.93% (inactive)
COc1cc([C@H](O)CO)ccc1O ... 17.1% [at 38 µM] (inactive)

Count: 2. Required value per item: activity, negative = inhibition.
1. O=C(O)CC[C@]1(C(=O)O)CCC(=O)c2ccccc21
2. CC(C)(C)CC(C)(C)c1cc(O)c(O)c(CN2CCCCC2)c1

result:
1. 2.44% (inactive)
2. 3.86% (inactive)
